- Measured on: Human cathepsin L (Homo sapiens)
- Construct: purchased Calbiochem Corp
- Sequence (P07711 114-333): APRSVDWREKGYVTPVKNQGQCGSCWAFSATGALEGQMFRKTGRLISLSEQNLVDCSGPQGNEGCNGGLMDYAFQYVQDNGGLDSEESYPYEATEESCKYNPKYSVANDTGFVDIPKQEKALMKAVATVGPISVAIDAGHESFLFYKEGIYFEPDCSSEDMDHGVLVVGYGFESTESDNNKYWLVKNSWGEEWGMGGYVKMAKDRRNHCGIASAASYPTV
- Test description: Measurement of cathepsin L inhibitory activity (fluorescent substrate Z-Phe-Arg-MCA)
- Format: biochemical
- Condition notes: selectivity ratio L/K
- Procedure: Human cathepsin L (Calbiochem Corp.) was used for measurement. Activity was measured based on decomposition of the fluorescent substrate Z-Phe-Arg-MCA (Peptide Institute, Inc.) in compliance with the method of Barrett, et al.^3). Namely, the decomposition of […] Z-Phe-Arg-MCA by cathepsin L was measured in 100 mM sodium acetate, 5 mM EDTA, 4 mM urea, 8 mM cysteine and 0.005% Brij35 at pH 5.5. […]
Starred links: 1 amine or outer side, 2 acyl side, 3 side chain; linkers in the order of their positions; H or OH if unused. Non-standard residues stand in square brackets, D forms with d. Residues, ends and D or L forms follow the SMILES beside them. *: point of attachment. Ac6c = NC1(C(=O)O)CCCCC1; Morpholide = C1CN(*)CCO1; Nle = CCCC[C@H](N)C(=O)O; Cbz = O=C(OCc1ccccc1)*; CO = O=C([*:1])[*:2]
# Lookup of reported L/K (ratio of IC50 cathepsin L to IC50 cathepsin K) keyed by entry
Test readout: L/K (ratio of IC50 cathepsin L to IC50 cathepsin K)

CCCC[C@@H](C=O)NC(=O)C1(NC(=O)OCc2ccccc2)CCCCC1 [Reference Example 190] (Cbz-[Ac6c]-[Nle]-aldehyde) = 50
CC(C)[C@@H](C=O)NC(=O)C1(NC(=O)OCc2ccccc2)CCCCC1 [Reference Example 189] (Cbz-[Ac6c]-Val-aldehyde) = 400
CC(C)[C@@H](C=O)NC(=O)C1(NC(=O)c2ccco2)CCCCC1 [Reference Example 191] = 370
CCCC[C@@H](C=O)NC(=O)C1(NC(=O)N2CCOCC2)CCCCC1 [Reference Example 192] ({Morpholide-CO}-[Ac6c]-[Nle]-aldehyde) = 21
CCCC[C@@H](C=O)NC(=O)[C@H](CC(C)C)NC(=O)OCc1ccccc1 [Reference Example 194] = 15
CC(C)C[C@H](NC(=O)OCc1ccccc1)C(=O)N[C@H](C=O)C(C)C [Reference Example 193] (Cbz-Leu-Val-aldehyde) = 74
CC(C)C[C@H](NC(=O)c1ccco1)C(=O)N[C@H](C=O)C(C)C [Reference Example 196] = 35
CCCC[C@@H](C=O)NC(=O)[C@H](CC(C)C)NC(=O)N1CCOCC1 [Reference Example 195] = 7.3

* * *

- Measured on: Human cathepsin L (Homo sapiens)
- Construct: purchased Calbiochem Corp
- Test description: Measurement of cathepsin L inhibitory activity (fluorescent substrate Z-Phe-Arg-MCA)
- Format: biochemical
- Condition notes: pH 5.5, 30° C., 30 minutes
Starred links: 1 amine or outer side, 2 acyl side, 3 side chain; linkers in the order of their positions; H or OH if unused. Non-standard residues stand in square brackets, D forms with d. Residues, ends and D or L forms follow the SMILES beside them. *: point of attachment. Ac6c = NC1(C(=O)O)CCCCC1; Morpholide = C1CN(*)CCO1; Nle = CCCC[C@H](N)C(=O)O; Cbz = O=C(OCc1ccccc1)*; CO = O=C([*:1])[*:2]
Test readout: IC50 (nM)

CC(C)[C@@H](C=O)NC(=O)C1(NC(=O)c2ccco2)CCCCC1 [Reference Example 191] = 200
CCCC[C@@H](C=O)NC(=O)C1(NC(=O)N2CCOCC2)CCCCC1 [Reference Example 192] ({Morpholide-CO}-[Ac6c]-[Nle]-aldehyde) = 470
CC(C)C[C@H](NC(=O)c1ccco1)C(=O)N[C@H](C=O)C(C)C [Reference Example 196] = 67
CCCC[C@@H](C=O)NC(=O)C1(NC(=O)OCc2ccccc2)CCCCC1 [Reference Example 190] (Cbz-[Ac6c]-[Nle]-aldehyde) = 200
CCCC[C@@H](C=O)NC(=O)[C@H](CC(C)C)NC(=O)N1CCOCC1 [Reference Example 195] = 22
CC(C)[C@@H](C=O)NC(=O)C1(NC(=O)OCc2ccccc2)CCCCC1 [Reference Example 189] (Cbz-[Ac6c]-Val-aldehyde) = 680
CC(C)C[C@H](NC(=O)OCc1ccccc1)C(=O)N[C@H](C=O)C(C)C [Reference Example 193] (Cbz-Leu-Val-aldehyde) = 140
CCCC[C@@H](C=O)NC(=O)[C@H](CC(C)C)NC(=O)OCc1ccccc1 [Reference Example 194] = 53
